Several publications report pIC50 on mitochondrial RNA-polymerase (POLRMT) (Mus musculus, UniProt Q8BKF1); those values are gathered here.
pIC50: −log10 of the molar value.

Some solved cases for reference:
1) C[C@@H](Oc1ccc2c(-c3ccccc3Cl)cc(Cl)nc2c1)C(=O)N1CCC[C@H](C(N)=O)C1	6.00 to 7.00
2) CCOC(=O)C(C)Oc1ccc2c(-c3cccc(Cl)c3)cc(=O)oc2c1 (stereo not shown)	6.00 to 7.00
3) Cc1c(OCC(=O)OC(C)(C)C)ccc2c(-c3ccccc3)cc(=O)oc12	5.00 to 6.00

Attention now turns to another entry.
Exam item: Reported pIC50 for Cc1ccccc1-c1cc(=O)oc2cc(OC(C)C(=O)N3CCC(CC(=O)O)CC3)ccc12 (stereo not shown) : what is it?
Marked response: 7.00 to 7.70
